tested on: DMS-273; test: NCI tumour cell line growth inhibition, 48 h
Calls of active or inactive are those of the source. Cut-off read from the data, not from the text of the source: active = GI50 up to about 1.1 µM and inactive = higher.
propertyLabel: GI50

Examples with their reported GI50 follow.
- molecule: "Cc1ccc(NC(=O)/C(C#N)=C/c2ccccc2)c(C)c1"
  measValue: "> 100 µM (inactive)"
- molecule: "Cc1ccc(S(=O)(=O)c2c(N)c3nccn3c3nc4ccccc4nc23)cc1"
  measValue: "81.1 µM (inactive)"
- molecule: "CCOC(=O)C1Nc2ccccc2[C@H]2OCC[C@@H]12 (stereo not given in full)"
  measValue: "> 100 µM (inactive)"

Consider the record given below.
Provide the documented GI50 with DMS-273 as the system for Cc1cccc2c(=O)c([Se]c3coc4c(C)cccc4c3=O)coc12
21.4 µM (inactive)

###

system: MOLT-4; assay: NCI tumour cell line growth inhibition, 48 h
Calls of active or inactive are those of the source. No stated cut-off is given here; in the data, active = GI50 up to about 1.1 µM and inactive = higher.
Respond only with the outcome that fits, drawn from active, inactive

- recordSmiles: "CN1CCN(CCCN)CC1"
  targetDesc: "MOLT-4"
  discreteLabel: "inactive"
- recordSmiles: "Cc1cccc2c(=O)c([Se]c3coc4c(C)cccc4c3=O)coc12"
  targetDesc: "MOLT-4"
  discreteLabel: "inactive"
- recordSmiles: "CC1=C(N2CC2)C(=O)c2ccccc2C1=O"
  targetDesc: "MOLT-4"
  discreteLabel: "active"

Record request — test call for N/C(=N\Nc1nc2cc([N+](=O)[O-])ccc2o1)c1ccccn1
active

Record request — test call for CCN1CCN(c2ccc(Nc3ccnc4ccc5c(nnn5C)c34)cc2)CC1
inactive

Record request — test call for N#C/C(=N\c1ccccc1N(C(=O)c1ccccc1)C(=O)c1ccccc1)c1ccccc1
inactive

Record request — test call for CC(C)=CCC[C@@H](C)C1=C(O)C(=O)C(C)=C(Nc2ccccc2Cl)C1=O
inactive

###

system: HOP-62; assay: NCI tumour cell line growth inhibition, 48 h
The source made the active and inactive calls. Rule as the data show it: active = GI50 up to about 1.1 µM and inactive = higher.
Respond only with the outcome that fits, drawn from true (1) (active), false (0) (inactive)

// below: answered compounds
- compound: "Cc1nc2c(o1)/C(=N\\c1ccccc1)c1ccccc1/C2=N/c1ccccc1"
  discreteLabel: "false (0)"
- compound: "Cn1c(N)c(/C=C/C(=O)Oc2ccccc2)c(=O)n(C)c1=O"
  discreteLabel: "false (0)"
- compound: "CC(=O)O[C@H]1CC2C(C3CCC(C(C)CCC(N)=O)[C@]31C)[C@H](OC(C)=O)C[C@@H]1CC3(CC[C@]21C)OOC1(CC[C@]2(C)C4C[C@H](OC(C)=O)[C@]5(C)C(C(C)CCC(N)=O)CCC5C4[C@H](OC(C)=O)C[C@@H]2C1)OO3 (some centres undefined)"
  discreteLabel: "false (0)"
- compound: "COc1ccc(C(=O)C(c2ccc(OC)cc2)C2C(=O)Oc3ccccc32)cc1 (centres undefined)"
  discreteLabel: "false (0)"
- compound: "C/C(=N\\NS(=O)(=O)c1ccc(C)cc1)P(=O)(O)O"
  discreteLabel: "false (0)"
- compound: "CSc1ncnc2c1cnn2Cc1cnnn1COCC(O)CO (centres undefined)"
  discreteLabel: "false (0)"
- compound: "COc1ccccc1CNCCCCCNCCCCCCCCCCNCCCCCNCc1ccccc1OC"
  discreteLabel: "false (0)"
- compound: "COc1cccc2cc(C(=O)NC34CC5CC(CC(C5)C3)C4)c(=N)oc12"
  discreteLabel: "false (0)"
- compound: "COC(=O)C(COC(C)=O)NC(=O)/C=C/c1ccc(O)c(OC(C)=O)c1 (centres undefined)"
  discreteLabel: "false (0)"
- compound: "O=c1nc(-c2ccccc2)scc1-c1ccccc1"
  discreteLabel: "false (0)"

Record request — test call for COc1ccc(C(=O)/C=C/c2ccncc2)cc1OC
false (0)

Record request — test call for CC[C@@]1(O)C[C@H](OC2CC(N(C)C)C(OC3CC(O)C(OC4CCC(=O)C(C)O4)C(C)O3)C(C)O2)c2c(cc3c(c2O)C(=O)c2c(O)ccc(O)c2C3=O)[C@H]1C(=O)OC (some centres undefined)
true (1)

Record request — test call for O=C(c1ccc(Cl)cc1Cl)N(Cc1cccnc1)C(=S)N(Cc1cccnc1)C(=O)c1ccc(Cl)cc1Cl
false (0)

Record request — test call for N/C(=N\Nc1nc2cc([N+](=O)[O-])ccc2o1)c1ccccn1
true (1)
